- Test system: keratinocytes
- assay-explanation: Rate of DNA synthesis (3H-thymidine incorporation) in keratinocytes
- Type: cell-based, human
- assay-context: Tables 5A-5I; 100 nM 1,25D; Econazole 10 uM, ceramide analogue 1 uM
Assign TRUE whenever DNA synthesis (% control) does not fall below 90 % control; assign FALSE whenever it does.

In plain terms: is recorded DNA synthesis (% control) at least 90 % control for CCCCCCCCCCCCCCC(O)CN(CCO)C(C)=O (stereo not drawn) [Formula C] ? FALSE

====

- System: 25D degradation (vitamin D metabolism in keratinocytes)
- assay-explanation: Vitamin D metabolism in keratinocytes: 25D degradation
- Format: cell-based, human
- assay-context: Table 2; 1 uM, 20 hour incubation; mean of duplicate (range)
recorded-metric: 25D degradation (%)

Below, each entry is followed by its recorded 25D degradation (%) result.
>  <compound>
c1ccc(-c2ccc(C(c3ccccc3)n3ccnc3)cc2)cc1 (stereo not shown) [Bifonazole]

>  <25D degradation (%)>
41.2 (35.4-47.1) %

$$$$
>  <compound>
Clc1ccc(COC(Cn2ccnc2)c2ccc(Cl)cc2Cl)cc1 (stereo not shown) [Econazole]

>  <25D degradation (%)>
54.1 (44.3-63.9) %

$$$$
>  <compound>
Clc1ccc(COC(Cn2ccnc2)c2ccc(Cl)cc2Cl)c(Cl)c1 (stereo not shown) [Miconazole]

>  <25D degradation (%)>
38.7 (35.4-42.0) %

$$$$

Query compound follows.
Return 25D degradation (%) for the following compound: Clc1ccccc1C(c1ccccc1)(c1ccccc1)n1ccnc1 [Clotrimazole] 47.4 (42.6-52.2) %

====

- System: keratinocytes
- assay-explanation: Rate of DNA synthesis (3H-thymidine incorporation) in keratinocytes
- Type: cell-based, human
- assay-context: Table 4; 10 uM azole (or no azole) + 100 nM 1,25D + 5 uM ceramide Formula A; mean + SD; * = synergistic effect; 1440 min
recorded-metric: DNA synthesis, % of control (100 nM 1,25D + 5 uM ceramide Formula A)

Below, each entry is followed by its recorded DNA synthesis, % of control (100 nM 1,25D + 5 uM ceramide Formula A) result.
>  <compound>
c1ccc(-c2ccc(C(c3ccccc3)n3ccnc3)cc2)cc1 (centres unmarked)

>  <result-value>
44.4 + 7.3 % of control

$$$$
>  <compound>
CCCCCCCCCCCCC/C=C/C(O)C(CO)NC(C)=O (centres unmarked)

>  <result-value>
81.1 + 16.5 % of control

$$$$
>  <compound>
Clc1ccc(COC(Cn2ccnc2)c2ccc(Cl)cc2Cl)cc1 (centres unmarked)

>  <result-value>
22.5 + 2.4 % of control

$$$$
>  <compound>
Clc1ccc(COC(Cn2ccnc2)c2ccc(Cl)cc2Cl)c(Cl)c1 (centres unmarked)

>  <result-value>
17.5 + 3.3 % of control

$$$$

Return DNA synthesis, % of control (100 nM 1,25D + 5 uM ceramide Formula A) for the following compound: Clc1ccccc1C(c1ccccc1)(c1ccccc1)n1ccnc1 19.5 + 0.77 % of control

====

- Test system: keratinocytes
- assay-explanation: Rate of DNA synthesis (3H-thymidine incorporation) in keratinocytes
- Format: cell-based, human
- assay-context: Table 5; 1 uM ceramide, no azole, 100 nM 1,25D; * = synergistic effect
recorded-metric: keratinocyte DNA synthesis, % of the corresponding controls (no azole) (%)
Numbers only, in %.

Dear colleague, could you send me keratinocyte DNA synthesis, % of the corresponding controls (no azole) for each of the items below? Thanks.
1. CCCCCCCCCCCCCCCCOCC(O)CN(CCO)C(C)=O (stereo not drawn)
2. CCCCCCCCCCCCCCC(O)CN(CCO)C(=O)CCCCC (stereo not drawn)

1: 104.3; 2: 69.5
